Observed Ki for Sodium-dependent serotonin transporter (Rattus norvegicus, UniProt P31652), reported per entry below.

CC(C)(N)Cc1ccc(Cl)cc1 :: 338 nM
CN1[C@H]2CC[C@@H]1[C@@H](C(=O)N1CCCC1)[C@@H](c1ccc(I)cc1)C2 :: 362 nM
CN[C@@H](C)Cc1ccc2c(c1)OCO2 :: 238 nM
NCCc1ccc(O)c(O)c1 :: 6490 nM

Lab note: compound "CC(C)(N)Cc1ccccc1" tested on Sodium-dependent serotonin transporter (Rattus norvegicus, UniProt P31652); recorded Ki was > 10000 nM

With Sodium-dependent serotonin transporter (Rattus norvegicus, UniProt P31652) as the test system, NC1=NCC(c2ccccc2)O1 (stereo unspecified) showed Ki of 1240 nM

Source listed as BindingDB's records for doi:10.1002/1098-2396(20010101)39:1.
